assay: Pharmacokinetic profile after IV and oral administration; format: in vivo; conditions: mouse, iv, 2 mg/kg; I.V., female C57BL/6 mice, plasma; read-out: Vss
measurementName: Vd (L/kg)

1) COc1cccc2c(NCCCCCO[N+](=O)[O-])ccnc12 | 8.48

====

test: Pharmacokinetic profile after IV and oral administration; type: in vivo; conditions: mouse, po; P.O, female C57BL/6 mice, plasma
measurementName: AUC(0-inf) (ng·h/mL)

1) COc1cccc2c(NCCCCCO[N+](=O)[O-])ccnc12 [Compound 5MPN] | 234

====

assay: Pharmacokinetic profile after IV and oral administration; format: in vivo; conditions: mouse, iv, 2 mg/kg; I.V., female C57BL/6 mice, plasma
measurementName: AUC(0-t)

1. COc1cccc2c(NCCCCCO[N+](=O)[O-])ccnc12 | 111 ng·h/mL

Where do these numbers come from? They come from paper PMC4627231.
